tested on: heart rate; assay: Pharmacodynamics in conscious dogs during transdermal iontophoretic administration; format: in vivo, dog; settings: iontophoresis 0.25 mA, 10 min; concentration (mM): isoproterenol 2.5, arbutamine 20, Ex 4 2, Ex 1 3, Ex 11 12, Ex 9 8, Ex 6 8
endpointName: Delay (time required for heart rate to begin to fall following termination of current) (min)
Numbers only, in min.

In the examples that follow, each entry is paired with its recorded Delay (time required for heart rate to begin to fall following termination of current).
>>> print(df.to_string())
                                   compound  resultunits  val
0  CC(C)NCC(O)c1ccc(O)c(O)c1 (stereo not shown) [Isoproterenol, reference compound]          min  1.2
1  COCCC(C)NC[C@H](O)c1ccc(O)c(O)c1 (stereo partly shown)          min  0.3
2            CSCCCCNC[C@H](O)c1ccc(O)c(O)c1          min  0.6
3  C[S+]([O-])CCCNC[C@H](O)c1ccc(O)c(O)c1 (stereo partly shown)          min  0.9
4  Oc1ccc(CCCCNC[C@H](O)c2ccc(O)c(O)c2)cc1 [Arbutamine, reference compound]          min  2.3

List the reported Delay (time required for heart rate to begin to fall following termination of current) of each compound below.
1. CSCCCNC[C@H](O)c1ccc(O)c(O)c1
2. N#CCCCNC[C@H](O)c1ccc(O)c(O)c1

0.8
1.9

This collection of values is drawn from patent US5775329A.
